# TESTED_SYSTEM: GLP-1R (Homo sapiens)
# RUN_DESCRIPTION: GLP-1R Activation - cAMP Assay
# Format: cell-based
# STATED_CONDITIONS: cAMP increase in CHO cells stably expressing GLP-1R; each compound run on one of the two cAMP assays (Assay 1 or Assay 2, not specified)
pEC50: −log10 of the molar value.

[
  {
    "MOLECULE": "CC1(C)COC[C@H]1n1c(Cc2ccc(-c3ccc(F)c(OCc4ccc(C#N)cc4F)n3)cc2)nc2ccc(C(=O)O)cc21 [Example 277]",
    "pEC50": 9.47
  },
  {
    "MOLECULE": "CC1(C)COC[C@H]1n1c(Cc2cc(F)c(-c3cccc(OCc4ncc(Cl)cc4F)n3)cc2F)nc2c(F)cc(C(=O)O)cc21 [Example 287]",
    "pEC50": 10.29
  },
  {
    "MOLECULE": "COCCn1c(Cc2cc(F)c(-c3cccc(OCc4ccc5c(c4)CN(S(C)(=O)=O)C5)n3)cc2F)nc2c(F)cc(C(=O)O)cc21 [Example 514]",
    "pEC50": 9.82
  },
  {
    "MOLECULE": "CC1(C)COC[C@H]1n1c(Cc2cc(F)c(-c3cccc(OCc4ccc(C(F)(F)F)cc4F)n3)cc2F)nc2ccc(C(=O)O)cc21 [Example 168]",
    "pEC50": 9.41
  },
  {
    "MOLECULE": "CC1(C)COC[C@H]1n1c(Cc2cc(F)c(-c3ccc(F)c(OCc4ccc(Cl)cc4F)n3)cc2F)nc2c(F)cc(C(=O)O)cc21 [Example 495]",
    "pEC50": 9.84
  },
  {
    "MOLECULE": "CC1(C)COC[C@H]1n1c(Cc2cc(F)c(-c3ccc(F)c(OCc4ccc(C#N)cc4F)n3)cc2F)nc2ccc(C(=O)O)nc21 [Example 428]",
    "pEC50": 9.98
  },
  {
    "MOLECULE": "CC1(C)COC[C@H]1n1c(Cc2cc(F)c(-c3ccnc(OCc4ccc(Cl)cc4)n3)cc2F)nc2ccc(C(=O)O)cc21 [Example 231]",
    "pEC50": 10.31
  },
  {
    "MOLECULE": "COc1cc(Cl)ncc1COc1nc(-c2ccc(Cc3nc4c(F)cc(C(=O)O)cc4n3[C@@H]3COCC3(C)C)c(F)c2)ccc1F [Example 324]",
    "pEC50": 10.31
  },
  {
    "MOLECULE": "COCCn1c(Cc2c(F)cc(-c3cccc(OCc4ccc(C#N)cc4)n3)c(F)c2F)nc2ccc(C(=O)O)cc21 [Example 281]",
    "pEC50": 9.18
  },
  {
    "MOLECULE": "N#Cc1ccc(COc2cccc(-c3cc(F)c(Cc4nc5ccc(C(=O)O)cc5n4C4CCCC4)cc3F)n2)c(F)c1 [Example 6]",
    "pEC50": 8.07
  },
  {
    "MOLECULE": "N#Cc1ccc(COc2cccc(-c3ccc(Cc4nc5ccc(C(=O)O)cc5n4[C@H]4CCOC4)c(F)c3)n2)c(F)c1 [Example 210]",
    "pEC50": 7.85
  },
  {
    "MOLECULE": "N#Cc1ccc(COc2cccc(-c3cc(F)c(Cc4nc5ccc(C(=O)O)cc5n4[C@@H]4COC[C@H]4C(F)F)cc3F)n2)c(F)c1 (racemic) [Example 269]",
    "pEC50": 9.79
  },
  {
    "MOLECULE": "CC1(C)COC[C@H]1n1c(Cc2cc(F)c(-c3cccc(OCc4ccccc4C#N)n3)cc2F)nc2ccc(C(=O)O)cc21 [Example 446]",
    "pEC50": 9.70
  },
  {
    "MOLECULE": "N#Cc1ccc(COc2cccc(-c3cc(F)c(Cc4nc5ccc(C(=O)O)cc5n4[C@@H]4CO[C@H]5COC[C@H]54)cc3F)n2)c(F)c1 [Example 79]",
    "pEC50": 8.25
  },
  {
    "MOLECULE": "CC1(C)COC[C@H]1n1c(Cc2cc(F)c(-c3ccc(F)c(OCc4cc(F)c(C#N)cc4F)n3)cc2F)nc2ccc(C(=O)O)cc21 [Example 491]",
    "pEC50": 10.10
  },
  {
    "MOLECULE": "N#Cc1ccc(COc2cccc(-c3cc(F)c(Cc4nc5ccc(C(=O)O)cc5n4[C@@H]4CCOC4)cc3F)n2)c(F)c1 [Example 5]",
    "pEC50": 9.11
  },
  {
    "MOLECULE": "CC1(C)COC[C@H]1n1c(Cc2cc(F)c(-c3cccc(OCc4ccc(F)c(F)c4F)n3)cc2F)nc2ccc(C(=O)O)cc21 [Example 451]",
    "pEC50": 9.21
  },
  {
    "MOLECULE": "COCCn1c(Cc2c(F)cc(-c3cccc(OCc4ccc(-n5ccnn5)cc4)n3)c(F)c2F)nc2c(F)cc(C(=O)O)cc21 [Example 222]",
    "pEC50": 9.87
  },
  {
    "MOLECULE": "Cn1cc(-c2ccc(COc3cccc(-c4cc(F)c(Cc5nc6ccc(C(=O)O)cc6n5[C@@H]5COCC5(C)C)cc4F)n3)c(F)c2)cn1 [Example 535]",
    "pEC50": 10.00
  },
  {
    "MOLECULE": "COCCn1c(Cc2cc(F)c(-c3cccc(OCc4ncc(F)cc4F)n3)cc2F)nc2ccc(C(=O)O)cc21 [Example 31]",
    "pEC50": 7.52
  },
  {
    "MOLECULE": "CC1(C)COC[C@H]1n1c(Cc2cc(F)c(-c3ccc(F)c(OCc4ccccc4F)n3)cc2F)nc2ccc(C(=O)O)cc21 [Example 477]",
    "pEC50": 9.77
  },
  {
    "MOLECULE": "Cc1cc(Cc2nc3ccc(C(=O)O)cc3n2[C@@H]2COCC2(C)C)c(Cl)cc1-c1ccnc(OCc2ccc(Cl)cc2)n1 [Example 218]",
    "pEC50": 9.55
  },
  {
    "MOLECULE": "CC1(C)COC[C@H]1n1c(Cc2cc(F)c(-c3cccc(OCc4cc(F)c(C#N)cc4F)n3)cc2F)nc2ccc(C(=O)O)cc21 [Example 487]",
    "pEC50": 9.80
  },
  {
    "MOLECULE": "CC1(C)COC[C@H]1n1c(Cc2cc(F)c(-c3cccc(OCc4cnc(-n5ccnn5)cc4Cl)n3)cc2F)nc2c(F)cc(C(=O)O)cc21 [Example 171]",
    "pEC50": 10.30
  },
  {
    "MOLECULE": "CC1(C)COC[C@H]1n1c(Cc2cc(F)c(-c3cccc(OCc4ccc(C(F)F)cc4)n3)cc2F)nc2ccc(C(=O)O)cc21 [Example 357]",
    "pEC50": 9.77
  },
  {
    "MOLECULE": "CC1(C)COC[C@H]1n1c(Cc2cc(F)c(-c3ccnc(OCc4ccc(C#N)cc4)n3)cc2F)nc2c(F)cc(C(=O)O)cc21 [Example 194]",
    "pEC50": 9.58
  }
]

###

Readings of EC50 for the listed compounds
# TESTED_SYSTEM: GLP-1R (Homo sapiens, UniProt P43220)
# Sequence (P43220 24-463): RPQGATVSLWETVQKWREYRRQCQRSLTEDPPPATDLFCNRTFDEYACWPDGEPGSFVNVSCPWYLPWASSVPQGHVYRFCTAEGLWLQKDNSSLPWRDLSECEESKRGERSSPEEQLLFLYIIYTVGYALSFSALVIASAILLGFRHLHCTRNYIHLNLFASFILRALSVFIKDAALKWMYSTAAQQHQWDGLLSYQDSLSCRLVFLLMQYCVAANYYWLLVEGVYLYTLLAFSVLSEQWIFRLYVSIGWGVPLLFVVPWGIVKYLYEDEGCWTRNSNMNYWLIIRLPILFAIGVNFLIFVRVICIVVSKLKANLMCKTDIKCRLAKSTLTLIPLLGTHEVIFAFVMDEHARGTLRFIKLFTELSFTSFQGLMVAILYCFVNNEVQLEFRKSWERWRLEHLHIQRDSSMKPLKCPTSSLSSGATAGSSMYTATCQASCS
# RUN_DESCRIPTION: GLP-1R Activation - cAMP Assay
# Type: cell-based
# STATED_CONDITIONS: cAMP increase in CHO cells stably expressing GLP-1R; each compound run on one of the two cAMP assays (Assay 1 or Assay 2, not specified)
ASSAY_READOUT: EC50 (nM)

[
  {
    "COMPOUND": "CC1(C)COC[C@H]1n1c(Cc2cc(F)c(-c3cccc(OCc4ccc(-n5ccnn5)nc4)n3)cc2F)nc2ccc(C(=O)O)cc21",
    "OUTPUT_UNIT": "nM",
    "MEAS_VALUE": 0.088
  },
  {
    "COMPOUND": "CC1(C)COC[C@H]1n1c(Cc2cc(F)c(-c3cccc(OCc4ccc(-n5ccnn5)cc4)n3)cc2F)nc2ccc(C(=O)O)cc21",
    "OUTPUT_UNIT": "nM",
    "MEAS_VALUE": 0.129
  },
  {
    "COMPOUND": "CC1(C)COCC1n1c(Cc2cc(F)c(-c3cccc(OCc4ccc(C(F)F)cc4F)n3)cc2F)nc2ccc(C(=O)O)cc21 (stereo not drawn)",
    "OUTPUT_UNIT": "nM",
    "MEAS_VALUE": 0.11
  },
  {
    "COMPOUND": "CC1(C)COC[C@H]1n1c(Cc2c(F)cc(-c3cccc(OCc4ccc(C#N)cc4F)n3)cc2F)nc2ccc(C(=O)O)cc21",
    "OUTPUT_UNIT": "nM",
    "MEAS_VALUE": 0.083
  },
  {
    "COMPOUND": "Cc1cc(Cc2nc3ccc(C(=O)O)cc3n2[C@@H]2COCC2(C)C)c(Cl)cc1-c1ccc(F)c(OCc2ccc(C#N)cc2F)n1",
    "OUTPUT_UNIT": "nM",
    "MEAS_VALUE": 0.158
  },
  {
    "COMPOUND": "CC1(C)COC[C@H]1n1c(Cc2c(F)cc(-c3cccc(OCc4ccc(Cl)cc4F)n3)cc2F)nc2c(F)cc(C(=O)O)cc21",
    "OUTPUT_UNIT": "nM",
    "MEAS_VALUE": 0.125
  }
]
